target: UniProtKB P35228; experiment: Binding against the partially purified human Inducible nitric oxide synthase
Sequence (P35228 whole entry): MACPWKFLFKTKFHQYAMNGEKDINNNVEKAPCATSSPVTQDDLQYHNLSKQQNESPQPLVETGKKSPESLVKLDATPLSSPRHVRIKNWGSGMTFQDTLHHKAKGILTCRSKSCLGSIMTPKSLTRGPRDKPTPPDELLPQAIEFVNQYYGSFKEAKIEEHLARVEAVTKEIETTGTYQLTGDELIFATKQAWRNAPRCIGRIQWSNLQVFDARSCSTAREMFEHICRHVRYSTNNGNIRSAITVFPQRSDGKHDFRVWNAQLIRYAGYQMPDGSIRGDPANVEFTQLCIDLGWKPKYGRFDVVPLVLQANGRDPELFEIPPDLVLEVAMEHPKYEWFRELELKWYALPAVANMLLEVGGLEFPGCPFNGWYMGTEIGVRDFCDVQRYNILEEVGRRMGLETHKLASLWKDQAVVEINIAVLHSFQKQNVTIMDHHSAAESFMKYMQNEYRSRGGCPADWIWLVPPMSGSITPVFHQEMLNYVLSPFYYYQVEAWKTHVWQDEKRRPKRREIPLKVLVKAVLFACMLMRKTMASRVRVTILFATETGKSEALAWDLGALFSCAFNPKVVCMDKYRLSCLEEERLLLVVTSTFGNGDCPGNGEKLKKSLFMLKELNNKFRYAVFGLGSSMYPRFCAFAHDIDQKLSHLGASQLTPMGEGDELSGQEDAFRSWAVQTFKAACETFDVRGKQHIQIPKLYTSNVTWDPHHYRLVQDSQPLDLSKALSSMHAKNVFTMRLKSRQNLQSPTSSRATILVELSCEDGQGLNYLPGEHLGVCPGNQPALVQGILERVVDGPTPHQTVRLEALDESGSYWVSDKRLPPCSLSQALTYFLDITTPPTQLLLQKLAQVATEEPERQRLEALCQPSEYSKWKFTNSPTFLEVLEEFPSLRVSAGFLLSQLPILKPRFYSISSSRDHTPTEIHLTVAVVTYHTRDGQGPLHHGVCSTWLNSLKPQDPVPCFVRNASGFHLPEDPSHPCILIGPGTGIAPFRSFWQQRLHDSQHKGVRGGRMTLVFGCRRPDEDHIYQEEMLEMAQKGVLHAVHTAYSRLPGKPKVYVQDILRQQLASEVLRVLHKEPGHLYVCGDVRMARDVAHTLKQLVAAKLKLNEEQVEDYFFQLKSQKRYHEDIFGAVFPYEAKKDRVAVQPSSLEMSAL
OBSERVABLE: Ki (nM)

INSERT INTO results (compound, observed_measurement) VALUES
  ('COC(=O)N1CCN(c2ccnc(-n3ccnc3)n2)C(CC(=O)NCc2ccc3c(c2)OCO3)C1 (stereo unspecified)', 2.2);

====

target: High affinity nerve growth factor receptor (Homo sapiens); test: Inhibition of NGF-stimulated Trk A in PC12 cells; type: cell-based, PC-12
Sequence (P04629 whole entry): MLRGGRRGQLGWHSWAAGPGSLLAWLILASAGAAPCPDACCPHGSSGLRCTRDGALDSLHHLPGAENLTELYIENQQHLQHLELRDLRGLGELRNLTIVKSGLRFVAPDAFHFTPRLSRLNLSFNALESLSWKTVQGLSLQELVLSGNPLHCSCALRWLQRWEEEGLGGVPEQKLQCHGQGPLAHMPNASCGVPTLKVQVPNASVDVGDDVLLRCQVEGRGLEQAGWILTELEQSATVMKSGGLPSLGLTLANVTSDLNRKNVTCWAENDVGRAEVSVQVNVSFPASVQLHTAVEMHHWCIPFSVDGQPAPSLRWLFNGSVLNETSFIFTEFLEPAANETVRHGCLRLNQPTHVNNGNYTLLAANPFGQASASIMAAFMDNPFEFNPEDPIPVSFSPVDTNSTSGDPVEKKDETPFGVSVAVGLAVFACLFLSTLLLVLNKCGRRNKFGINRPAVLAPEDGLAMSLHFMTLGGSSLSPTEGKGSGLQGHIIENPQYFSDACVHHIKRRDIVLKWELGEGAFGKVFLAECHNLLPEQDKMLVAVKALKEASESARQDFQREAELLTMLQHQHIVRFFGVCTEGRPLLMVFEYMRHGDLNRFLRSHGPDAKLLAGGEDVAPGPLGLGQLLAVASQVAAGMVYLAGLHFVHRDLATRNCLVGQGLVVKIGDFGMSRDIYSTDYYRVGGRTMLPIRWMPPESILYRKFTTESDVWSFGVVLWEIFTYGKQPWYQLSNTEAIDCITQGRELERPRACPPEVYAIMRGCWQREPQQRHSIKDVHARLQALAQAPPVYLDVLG
pIC50: −log10 of the molar value.
OBSERVABLE: pIC50

INSERT INTO measurements (structure_notation, target_system, observed_measurement) VALUES
  ('O=C1c2cccc3cc([N+](=O)[O-])cc(c23)C(=O)N1NCCO', 'High affinity nerve growth factor receptor (Homo sapiens)', 5.43);
